meta.source: PubChem BioAssay AID179

// reported IC50 per item
# System: CEM cells HIV-1 protection, formazan growth assay
# Method: NCI AIDS Antiviral Assay
# Conditions: measured here: growth of uninfected CEM cells

| Compound | IC50 |
| --- | --- |
| CNC(=O)c1cc2nc3ccccc3c(=O)n2c2ccccc12 | > 100 µM |
| COc1ccc(-c2nc3sc(-c4ccc(OC)c(OC)c4)nc3s2)cc1OC | > 200 µM |
| CSc1ncc2c(C#N)c3sc4ccccc4n3c(=O)c2n1 | > 200 µM |
| Cc1cc(O)c(C(=O)CC2(O)C(=O)Nc3c(Cl)cc(Cl)cc32)c(=O)o1 (configuration not stated) | > 468 µM |
| O=C(CC1Sc2ccccc2NC1=O)Nc1ccc(Cl)cc1 (configuration not stated) | > 107 µM |
| C=C(CCOC)CCC1CCCCC(=C)[C@H]1O (some centres not stated) | > 200 µM |
| Nc1ccc2c(c1)S(=O)(=O)c1cc(N)ccc1-2 | > 200 µM |
